B1: library; a variant is named by its letters at N, in order (parent)
chain: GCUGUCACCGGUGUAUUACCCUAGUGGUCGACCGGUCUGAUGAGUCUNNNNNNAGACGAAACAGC

- Variants of: B1
- Test Summary: normalized RNA/DNA level with ligand (relative to sTRSVctl = 100) (log10 (% of sTRSVctl)); ligand: hypoxanthine (xanthine aptamer); higher = less ribozyme self-cleavage, higher mRNA level
- Applied Conditions: ligand concentration (+) RNA-Seq: 5 mM, HEK293T, reporter: mCherry (pCS4076), ligand present: yes
Quantity Name: normalized RNA/DNA level with ligand (log10)

Worked set:
GCUGUCACCGGUGUAUUACCCUAGUGGUCGACCGGUCUGAUGAGUCUCGUACUAGACGAAACAGC [CGUACU] | 1.95
GCUGUCACCGGUGUAUUACCCUAGUGGUCGACCGGUCUGAUGAGUCUUAUUACAGACGAAACAGC [UAUUAC] | 1.9
GCUGUCACCGGUGUAUUACCCUAGUGGUCGACCGGUCUGAUGAGUCUAGUCCAAGACGAAACAGC [AGUCCA] | 1.95
GCUGUCACCGGUGUAUUACCCUAGUGGUCGACCGGUCUGAUGAGUCUUUGGCAAGACGAAACAGC [UUGGCA] | 1.97

q: Kindly indicate its recorded normalized RNA/DNA level with ligand (log10). Item: GCUGUCACCGGUGUAUUACCCUAGUGGUCGACCGGUCUGAUGAGUCUAAACGGAGACGAAACAGC [AAACGG]
a: 1.73

q: Item GCUGUCACCGGUGUAUUACCCUAGUGGUCGACCGGUCUGAUGAGUCUGCGCAUAGACGAAACAGC [GCGCAU] : provide normalized RNA/DNA level with ligand (log10)
a: 1.89

q: Please report normalized RNA/DNA level with ligand (log10) for the following variant: GCUGUCACCGGUGUAUUACCCUAGUGGUCGACCGGUCUGAUGAGUCUGCCCGAAGACGAAACAGC [GCCCGA]
a: 2.01
